The measurements presented in this section are drawn from ChEMBL document CHEMBL3351613.

Measured pIC50 by item
Biological target: Human immunodeficiency virus type 1 reverse transcriptase (Human immunodeficiency virus 1, UniProt Q72547, Y181I)
pIC50: −log10 of the molar value.

MOLECULE: Cc1cc(C)cc(S(=O)(=O)c2c(C(=O)NCc3cccs3)[nH]c3ccc(Cl)cc23)c1
pIC50: < 4.70
//
MOLECULE: Cc1cc(C)cc(S(=O)(=O)c2c(C(=O)NNc3ccncc3)[nH]c3ccc(Cl)cc23)c1
pIC50: < 4.70
//
MOLECULE: Cc1cc(C)cc(S(=O)(=O)c2c(C(=O)NCCc3cccs3)[nH]c3ccc(Cl)cc23)c1
pIC50: < 4.70
//
MOLECULE: Cc1cc(C)cc(S(=O)(=O)c2c(C(=O)NCCc3ccccc3)[nH]c3ccc(Cl)cc23)c1
pIC50: < 4.70
//
MOLECULE: Cc1cc(C)cc(S(=O)(=O)c2c(C(=O)NN(C)c3ccccc3)[nH]c3ccc(Cl)cc23)c1
pIC50: < 4.70
//
MOLECULE: Cc1cc(C)cc(S(=O)(=O)c2c(C(=O)NCc3ccccc3)[nH]c3ccc(Cl)cc23)c1
pIC50: < 4.70
//
MOLECULE: Cc1cc(C)cc(S(=O)(=O)c2c(C(=O)NC(C)c3cccnc3)[nH]c3ccc(Cl)cc23)c1 (racemic)
pIC50: < 4.70

====

Molecular target: Human immunodeficiency virus type 1 reverse transcriptase (Human immunodeficiency virus 1, UniProt Q72547, K103N)

STRUCTURE AS SMILES: Cc1cc(C)cc(S(=O)(=O)c2c(C(=O)NCc3ccccc3)[nH]c3ccc(Cl)cc23)c1
IC50: > 20 µM
--
STRUCTURE AS SMILES: Cc1cc(C)cc(S(=O)(=O)c2c(C(=O)NNc3ccncc3)[nH]c3ccc(Cl)cc23)c1
IC50: > 20 µM
--
STRUCTURE AS SMILES: Cc1cc(C)cc(S(=O)(=O)c2c(C(=O)NCc3cccs3)[nH]c3ccc(Cl)cc23)c1
IC50: > 20 µM

====

selectivity ratio values by entry
Assay: in vitro
Details: human, MT4 cells
Description: Selectivity index, ratio of CC50 for human MT4 cells to EC50 for HIV1 NL4-3 infected in human MT4 cells

STRUCTURE AS SMILES: Cc1cccc(C)c1S(=O)(=O)c1c(C(N)=O)[nH]c2ccc(Cl)cc12
selectivity ratio: > 1110

STRUCTURE AS SMILES: Cc1cc(C)cc(S(=O)(=O)c2c(C(=O)NCc3ccncn3)[nH]c3ccc(Cl)cc23)c1
selectivity ratio: > 250000

STRUCTURE AS SMILES: Cc1cccc(C)c1S(=O)(=O)c1c(C(=O)NCc2ccncc2)[nH]c2ccc(Cl)cc12
selectivity ratio: > 167

STRUCTURE AS SMILES: Cc1cc(C)cc(S(=O)(=O)c2c(C(=O)NCc3ccco3)[nH]c3ccc(Cl)cc23)c1
selectivity ratio: > 282000

STRUCTURE AS SMILES: O=C(NCc1ccncc1)c1[nH]c2ccc(Cl)cc2c1S(=O)(=O)c1c(Cl)cccc1Cl
selectivity ratio: > 62400

====

Listing: selectivity ratio of selected compounds
Experiment: in vitro
Details: human, MT4 cells
MEASURED PARAMETER: selectivity ratio

COMPOUND: Cc1cc(C)cc(S(=O)(=O)c2c(C(=O)NCCc3cccs3)[nH]c3ccc(Cl)cc23)c1
MEASURED PARAMETER: selectivity ratio
VAL: > 62900

COMPOUND: Cc1cc(C)cc(S(=O)(=O)c2c(C(=O)NC(C)c3ccccc3)[nH]c3ccc(Cl)cc23)c1 (stereo not drawn)
MEASURED PARAMETER: selectivity ratio
VAL: > 206000

COMPOUND: Cc1cc(C)cc(S(=O)(=O)c2c(C(=O)NCc3cccs3)[nH]c3ccc(Cl)cc23)c1
MEASURED PARAMETER: selectivity ratio
VAL: > 77800
